Cited source for all entries: PubChem BioAssay AID1259407

Test system: CCRIS mutagenicity, Ames/micronucleus/aberration tests
Method: CCRIS mutagenicity studies
Recorded conditions: Test System: AMES SALMONELLA TYPHIMURIUM; Strain/Indicator: TA1537; Metabolic Activation: NONE; Method: STANDARD PLATE
Activity calls are given as the source filed them. How the calls were made is not given here.
Measurement type: mutagenic call

These recorded examples may help you get a feel for the data.
Molecule	Measurement type	Recorded value
CCN(CC)CCNc1ccc2ncn3c4ccc(O)cc4c(=O)c1c23	mutagenic call	active; positive
COc1cc([C@@H]2c3cc4c(cc3[C@H](O)[C@H]3COC(=O)[C@H]23)OCO4)cc(OC)c1OC	mutagenic call	inactive; negative
C[C@@H]1CC[C@@]2(OC1)O[C@H]1C[C@H]3[C@@H]4CC=C5C[C@@H](O)CC[C@]5(C)[C@H]4CC[C@]3(C)[C@H]1[C@@H]2C	mutagenic call	inactive; negative
CCS(=O)(=O)n1ncc(Cl)c(Cl)c1=O	mutagenic call	inactive; negative
Nc1ccc(S(=O)(=O)Nc2nccs2)cc1	mutagenic call	inactive; negative
Cc1c(C)c2c(c(C)c1O)CC[C@@](C)(CCC[C@H](C)CCC[C@H](C)CCCC(C)C)O2	mutagenic call	inactive; negative
NCCCC[C@H](N[C@@H](CCc1ccccc1)C(=O)O)C(=O)N1CCC[C@H]1C(=O)O	mutagenic call	inactive; negative
CS(=O)(=O)Nc1ccc(Nc2c3ccccc3nc3ccccc23)cc1	mutagenic call	active; positive

Record request: mutagenic call value, item `Cc1cccc(O)c1N`
inactive; negative

Record request: mutagenic call value, item `N#CCCNCCC#N`
inactive; negative

Record request: mutagenic call value, item `COc1cccc2c1C(=O)c1c(O)c3c(c(O)c1C2=O)C[C@@](O)(C(=O)CO)C[C@@H]3O[C@H]1C[C@H](N)[C@H](O)[C@H](C)O1`
inactive; negative

Record request: mutagenic call value, item `COc1c(N)cc(C)c(N)c1C`
inactive; negative

Record request: mutagenic call value, item O=C1c2c(O)ccc(O)c2C(=O)C2C(O)=CC=C(O)C12 (centres undefined)
active; positive

Record request: mutagenic call value, item `C/C=C/c1cc(OC)c(OC)cc1OC`
inactive; negative

Record request: mutagenic call value, item `CC1(C)[C@@H](O[C@H]2O[C@H](C(=O)O)[C@@H](O)[C@H](O)[C@H]2O[C@@H]2O[C@H](C(=O)O)[C@@H](O)[C@H](O)[C@H]2O)CC[C@]2(C)[C@H]3C(=O)C=C4[C@@H]5C[C@@](C)(C(=O)O)CC[C@]5(C)CC[C@@]4(C)[C@]3(C)CC[C@@H]12`
inactive; negative

Record request: mutagenic call value, item `[Zn]`
inactive; negative

Record request: mutagenic call value, item `CC(=O)Nc1ccc2[nH]c3ccccc3c2c1`
inactive; negative

Record request: mutagenic call value, item `CN(C)CCNC(=O)c1cccn2c(=O)c3ccccc3nc12`
active; positive

Record request: mutagenic call value, item `CC(C)N(C(=O)SCC(Cl)=C(Cl)Cl)C(C)C`
inactive; negative

Record request: mutagenic call value, item `CS(=O)(=O)c1ccc(Cl)cc1`
inactive; negative
